Parameter growth sensitivity score: see the listing below.
Test system: S. cerevisiae AD1-9 (efflux-pump deficient), vegetative growth in YPD
Assay explanation: growth sensitivity score (doubling time z-score vs DMSO controls); higher = slower growth, strongly negative scores also mark growth inhibition (complete suppression), active = hit call of the paper
Structures can show the parent of a compound that is named as a salt.
Measured metric: growth sensitivity score

CC1CNc2c(cccc2S(=O)(=O)N[C@@H](CCCNC(=N)N)C(=O)N2CC[C@@H](C)C[C@@H]2C(=O)O)C1 (stereo not given in full) [Argatroban] (stock concentration (mM, diluted 1:100): 10.1) ... -2.07
CN1CCc2cc(Cl)c(O)cc2[C@@H](c2ccccc2)C1 (stock concentration (mM, diluted 1:100): 9.9) ... 0.38
CC(C)(C)NC(=O)[C@@H]1C[C@@H]2CCCC[C@@H]2CN1C[C@@H](O)[C@H](Cc1ccccc1)NC(=O)[C@H](CC(N)=O)NC(=O)c1ccc2ccccc2n1 [Saquinavir mesylate] (stock concentration (mM, diluted 1:100): 8.8) ... -2.2
CN(CCOc1ccc(CC2SC(=O)NC2=O)cc1)c1ccccn1 (stereo not given) [Rosiglitazone maleate] (stock concentration (mM, diluted 1:100): 7.6) ... 2.19
Cc1[nH]c(=O)c(C#N)cc1-c1ccncc1 [Milrinone] (stock concentration (mM, diluted 1:100): 10.1) ... -2.83
